TESTED SYSTEM: HLA-A*02:06
PROTOCOL DESCRIPTION: IEDB peptide-MHC binding, purified MHC/competitive/radioactivity; filed as Kd, often an IC50 or EC50 that approximates it; bounds were set here for any values at or beyond the usual limits of such assays
MEASUREMENT CONDITIONS: source organism: Dengue virus 2 Peru/IQT2913/1996
READOUT TYPE: pKd
pKd here: minus log base 10 of the concentration, concentration in moles per litre.

Notebook: "MLLVLCVTQV" , pKd read as 7.08

* * *

TESTED SYSTEM: HLA-A*24:03
PROTOCOL DESCRIPTION: IEDB peptide-MHC binding, purified MHC/competitive/fluorescence; filed as Kd, often an IC50 or EC50 that approximates it; bounds were set here for any values at or beyond the usual limits of such assays
MEASUREMENT CONDITIONS: source organism: Burkholderia vietnamiensis G4
READOUT TYPE: Kd

Considering "GVNDTEAHA" , its Kd with HLA-A*24:03 was recorded as ≥ 20 µM

* * *

TESTED SYSTEM: HLA-B*48:01
PROTOCOL DESCRIPTION: IEDB peptide-MHC binding, purified MHC/direct/fluorescence; filed as Kd, often an IC50 or EC50 that approximates it; bounds were set here for any values at or beyond the usual limits of such assays
MEASUREMENT CONDITIONS: source organism: Orthohantavirus andesense
READOUT TYPE: Kd

Notebook: "TRDHVNLVL" , Kd read as ≥ 20 µM

* * *

TESTED SYSTEM: HLA-B*57:01
PROTOCOL DESCRIPTION: IEDB peptide-MHC binding, purified MHC/direct/fluorescence; filed as Kd, often an IC50 or EC50 that approximates it; bounds were set here for any values at or beyond the usual limits of such assays
MEASUREMENT CONDITIONS: source organism: Influenza A virus (A/SW/MN/12883/00(H1N2))
pKd: −log10 of the molar value.
READOUT TYPE: pKd

Notebook: "FPNEVGARI" , pKd read as ≤ 4.70

* * *

TESTED SYSTEM: HLA-B*46:01
PROTOCOL DESCRIPTION: IEDB peptide-MHC binding, purified MHC/direct/fluorescence; filed as Kd, often an IC50 or EC50 that approximates it; bounds were set here for any values at or beyond the usual limits of such assays
MEASUREMENT CONDITIONS: source organism: Mammarenavirus lassaense
READOUT TYPE: Kd

Notebook: "IMGIPYCNY" , Kd read as ≥ 20 µM

Notebook: "DIKLIDIAL" , Kd read as ≥ 20 µM

* * *

TESTED SYSTEM: HLA-B*18:01
PROTOCOL DESCRIPTION: IEDB peptide-MHC binding, purified MHC/direct/fluorescence; filed as Kd, often an IC50 or EC50 that approximates it; bounds were set here for any values at or beyond the usual limits of such assays
MEASUREMENT CONDITIONS: source organism: Campylobacter jejuni
pKd: −log10 of the molar value.
READOUT TYPE: pKd

Notebook: "WFGHLASDW" , pKd read as ≤ 4.70

* * *

TESTED SYSTEM: HLA-A*24:02
PROTOCOL DESCRIPTION: IEDB peptide-MHC binding, purified MHC/competitive/fluorescence; bounds were set here for any values at or beyond the usual limits of such assays
MEASUREMENT CONDITIONS: source organism: Vaccinia virus WR
READOUT TYPE: IC50 (µM)
Output spec: scalar in µM, unitless text.

Notebook: "EYRFLVINR" , IC50 read as 57.6

Notebook: "VMLIGIEIL" , IC50 read as 37.6

* * *

TESTED SYSTEM: HLA-A*31:01
PROTOCOL DESCRIPTION: IEDB peptide-MHC binding, purified MHC/direct/fluorescence; filed as Kd, often an IC50 or EC50 that approximates it; bounds were set here for any values at or beyond the usual limits of such assays
MEASUREMENT CONDITIONS: source organism: Mammarenavirus juninense
pKd: −log10 of the molar value.
READOUT TYPE: pKd

Notebook: "QLAKRSEIL" , pKd read as ≤ 4.70

* * *

TESTED SYSTEM: HLA-B*15:17
PROTOCOL DESCRIPTION: IEDB peptide-MHC binding, purified MHC/direct/fluorescence; filed as Kd, often an IC50 or EC50 that approximates it; bounds were set here for any values at or beyond the usual limits of such assays
MEASUREMENT CONDITIONS: source organism: Campylobacter jejuni
pKd: −log10 of the molar value.
READOUT TYPE: pKd

Notebook: "WFGHLASDW" , pKd read as ≤ 4.70

* * *

TESTED SYSTEM: HLA-B*40:01
PROTOCOL DESCRIPTION: IEDB peptide-MHC binding, purified MHC/direct/fluorescence; filed as Kd, often an IC50 or EC50 that approximates it; bounds were set here for any values at or beyond the usual limits of such assays
MEASUREMENT CONDITIONS: source organism: Influenza A virus (A/SW/MN/12883/00(H1N2))
READOUT TYPE: Kd

Notebook: "FPNEVGARI" , Kd read as ≥ 20 µM

* * *

Exercise: state measured Kd for each of the sequences provided.
TESTED SYSTEM: HLA-A*03:01
PROTOCOL DESCRIPTION: IEDB peptide-MHC binding, purified MHC/competitive/radioactivity; filed as Kd, often an IC50 or EC50 that approximates it; bounds were set here for any values at or beyond the usual limits of such assays
MEASUREMENT CONDITIONS: source organism: Vaccinia virus Copenhagen
Output spec: scalar in nM, unitless text.

Notebook: "TLFIDRGSIK" , Kd read as 12.4

Notebook: "CQLMYALEPR" , Kd read as 58

Notebook: "QLMYALEPR" , Kd read as 15200

* * *

TESTED SYSTEM: HLA-B*15:17
PROTOCOL DESCRIPTION: IEDB peptide-MHC binding, purified MHC/competitive/fluorescence; filed as Kd, often an IC50 or EC50 that approximates it; bounds were set here for any values at or beyond the usual limits of such assays
MEASUREMENT CONDITIONS: source organism: Vibrio cholerae 2740-80
READOUT TYPE: Kd

Notebook: "AADFPGIAR" , Kd read as ≥ 20 µM

* * *

TESTED SYSTEM: HLA-A*69:01
PROTOCOL DESCRIPTION: IEDB peptide-MHC binding, purified MHC/direct/fluorescence; filed as Kd, often an IC50 or EC50 that approximates it; bounds were set here for any values at or beyond the usual limits of such assays
MEASUREMENT CONDITIONS: source organism: Salmonella enterica subsp. enterica serovar Berta
READOUT TYPE: Kd

Notebook: "HQDDGQPRL" , Kd read as ≥ 20 µM

* * *

TESTED SYSTEM: HLA-B*07:02
PROTOCOL DESCRIPTION: IEDB peptide-MHC binding, purified MHC/direct/fluorescence; filed as Kd, often an IC50 or EC50 that approximates it; bounds were set here for any values at or beyond the usual limits of such assays
MEASUREMENT CONDITIONS: source organism: Bacillus anthracis
READOUT TYPE: Kd

Notebook: "RPQHVKKSA" , Kd read as 8.5 nM

* * *

Exercise: state measured Kd for each of the sequences provided.
TESTED SYSTEM: HLA-B*51:01
PROTOCOL DESCRIPTION: IEDB peptide-MHC binding, purified MHC/competitive/radioactivity; filed as Kd, often an IC50 or EC50 that approximates it; bounds were set here for any values at or beyond the usual limits of such assays
MEASUREMENT CONDITIONS: source organism: SARS coronavirus Tor2
Output spec: scalar in µM, unitless text.

Notebook: "TPKYKFVRI" , Kd read as 16.1

Notebook: "KPTTFMLKY" , Kd read as 13

* * *

TESTED SYSTEM: HLA-A*26:01
PROTOCOL DESCRIPTION: IEDB peptide-MHC binding, purified MHC/direct/fluorescence; filed as Kd, often an IC50 or EC50 that approximates it; bounds were set here for any values at or beyond the usual limits of such assays
MEASUREMENT CONDITIONS: source organism: Influenza A virus (A/chicken/Hunan/fg/2004(H5N1))
READOUT TYPE: Kd (nM)
Output spec: scalar in nM, unitless text.

Notebook: "DTVNRTHQY" , Kd read as 5.5

* * *

TESTED SYSTEM: HLA-A*31:01
PROTOCOL DESCRIPTION: IEDB peptide-MHC binding, purified MHC/direct/fluorescence; filed as Kd, often an IC50 or EC50 that approximates it; bounds were set here for any values at or beyond the usual limits of such assays
MEASUREMENT CONDITIONS: source organism: Influenza A virus (A/Viet Nam/HN/2004(H5N1))
pKd: −log10 of the molar value.
READOUT TYPE: pKd

Notebook: "VHFRNQVKI" , pKd read as ≤ 4.70
